Tested on: panel of 240 cancer cell lines
experimental.details: 10-day growth/death assay (Eurofins panel)
Format: cell-based
reported.conditions: Homo sapiens, HT-1080, HT-1080; read-out: gIC50
measurement.label: IC50 (nM)
Return type: number; implicit unit nM.

stdin: Requested read-out: IC50. Entry: O=C(NC[C@H](O)CN1CCc2ccccc2C1)c1ccnc(NC2CCC2)c1
stdout: 53.5

###

Tested on: panel of hematologic and solid cancer lines
experimental.details: 6-day in vitro growth/death assay
Type: cell-based, human
reported.conditions: Homo sapiens, COLO-741, COLO-741; read-out: gIC50
measurement.label: IC50 (nM)
Return type: number; implicit unit nM.

stdin: Requested read-out: IC50. Entry: O=C(NC[C@H](O)CN1CCc2ccccc2C1)c1ccnc(NC2CCC2)c1
stdout: 2910

###

Tested on: panel of hematologic and solid cancer lines
experimental.details: 6-day in vitro growth/death assay
Assay type: cell-based, human
reported.conditions: Homo sapiens, TF-1, TF-1; read-out: gIC50
measurement.label: pIC50
// pIC50 is dimensionless: -log10 of concentration (M)

stdin: Requested read-out: pIC50. Entry: O=C(NC[C@H](O)CN1CCc2ccccc2C1)c1ccnc(NC2CCC2)c1
stdout: 6.86

###

Tested on: panel of hematologic and solid cancer lines
experimental.details: 6-day in vitro growth/death assay
Type: cell-based, human
reported.conditions: Homo sapiens, DLD-1, DLD-1; read-out: gIC50
measurement.label: pIC50
// pIC50 is dimensionless: -log10 of concentration (M)

stdin: Requested read-out: pIC50. Entry: O=C(NC[C@H](O)CN1CCc2ccccc2C1)c1ccnc(NC2CCC2)c1 [GSK3203591]
stdout: 5.61

###

Tested on: panel of 240 cancer cell lines
experimental.details: 10-day growth/death assay (Eurofins panel)
Type: cell-based
reported.conditions: Homo sapiens, A 172, A172; read-out: gIC50
measurement.label: IC50 (nM)
Return type: number; implicit unit nM.

stdin: Form field - read-out: IC50; system: panel of 240 cancer cell lines; submitted item: O=C(NC[C@H](O)CN1CCc2ccccc2C1)c1ccnc(NC2CCC2)c1
stdout: 29.6

###

Tested on: panel of hematologic and solid cancer lines
experimental.details: 6-day in vitro growth/death assay
Assay type: cell-based, human
reported.conditions: Homo sapiens, RCK8, RCK8; read-out: gIC50
measurement.label: pIC50
// pIC50 is dimensionless: -log10 of concentration (M)

stdin: Requested read-out: pIC50. Entry: CC(=O)N1CCC(Nc2cc(C(=O)NC[C@H](O)CN3CCc4ccccc4C3)ncn2)CC1
stdout: 6.28

stdin: Requested read-out: pIC50. Entry: O=C(NC[C@H](O)CN1CCc2ccccc2C1)c1ccnc(NC2CCC2)c1
stdout: 5.68

###

System: panel of 240 cancer cell lines
experimental.details: 10-day growth/death assay (Eurofins panel)
Format: cell-based
reported.conditions: Homo sapiens, LNCaP; read-out: gIC50
measurement.label: pIC50
// pIC50 is dimensionless: -log10 of concentration (M)

stdin: Requested read-out: pIC50. Entry: O=C(NC[C@H](O)CN1CCc2ccccc2C1)c1ccnc(NC2CCC2)c1
stdout: 5.53

###

System: panel of hematologic and solid cancer lines
experimental.details: 6-day in vitro growth/death assay
Assay type: cell-based, human
reported.conditions: Homo sapiens, LN-18, LN-18; read-out: gIC50
measurement.label: pIC50
// pIC50 is dimensionless: -log10 of concentration (M)

stdin: Requested read-out: pIC50. Entry: O=C(NC[C@H](O)CN1CCc2ccccc2C1)c1ccnc(NC2CCC2)c1
stdout: 5.01

###

Tested on: panel of 240 cancer cell lines
experimental.details: 10-day growth/death assay (Eurofins panel)
Format: cell-based
reported.conditions: Homo sapiens, BE(2)-C, BE(2)C; read-out: gIC50
measurement.label: IC50 (nM)
Return type: number; implicit unit nM.

stdin: Requested read-out: IC50. Entry: O=C(NC[C@H](O)CN1CCc2ccccc2C1)c1ccnc(NC2CCC2)c1
stdout: 803

###

Tested on: panel of hematologic and solid cancer lines
experimental.details: 6-day in vitro growth/death assay
Type: cell-based, human
reported.conditions: Homo sapiens, SC-1, SC-1; read-out: gIC50
Protocol: To further develop these molecules and to guide clinical strategy, it was necessary to understand sensitivity in preclinical models by assessing the anti-tumour activity of the PRMT5 inhibitors in various cancers. Cell lines were obtained from ATCC or DSMZ and were grown in recommended medium, which was most frequently RPMI-1640 containing 10% FBS. Cell line proliferation assays, Western blotting, qRT-PCR, and cell cycle analyses were performed as described previously[27],[28]. […]
measurement.label: IC50 (nM)
Return type: number; implicit unit nM.

stdin: Requested read-out: IC50. Entry: O=C(NC[C@H](O)CN1CCc2ccccc2C1)c1ccnc(NC2CCC2)c1
stdout: 117

###

Tested on: panel of hematologic and solid cancer lines
experimental.details: 6-day in vitro growth/death assay
Format: cell-based, human
reported.conditions: Homo sapiens, CAL-51, CAL-51; read-out: gIC50
measurement.label: pIC50
// pIC50 is dimensionless: -log10 of concentration (M)

stdin: Requested read-out: pIC50. Entry: O=C(NC[C@H](O)CN1CCc2ccccc2C1)c1ccnc(NC2CCC2)c1
stdout: 5.64

###

System: panel of 240 cancer cell lines
experimental.details: 10-day growth/death assay (Eurofins panel)
Assay type: cell-based
reported.conditions: Homo sapiens, BT-549, BT-549; read-out: gIC50
measurement.label: IC50 (nM)
Return type: number; implicit unit nM.

stdin: Requested read-out: IC50. Entry: O=C(NC[C@H](O)CN1CCc2ccccc2C1)c1ccnc(NC2CCC2)c1 [GSK3203591]
stdout: 59.4

###

Test system: panel of hematologic and solid cancer lines
experimental.details: 6-day in vitro growth/death assay
Assay type: cell-based, human
reported.conditions: Homo sapiens, EBC-1, EBC-1; read-out: gIC50
measurement.label: pIC50
// pIC50 is dimensionless: -log10 of concentration (M)

stdin: Requested read-out: pIC50. Entry: O=C(NC[C@H](O)CN1CCc2ccccc2C1)c1ccnc(NC2CCC2)c1 [GSK3203591]
stdout: 6.62

###

System: panel of hematologic and solid cancer lines
experimental.details: 6-day in vitro growth/death assay
Assay type: cell-based, human
reported.conditions: MDA-MB-468; read-out: gIC50
measurement.label: IC50 (nM)
Return type: number; implicit unit nM.

stdin: Requested read-out: IC50. Entry: CC(=O)N1CCC(Nc2cc(C(=O)NC[C@H](O)CN3CCc4ccccc4C3)ncn2)CC1
stdout: 57

###

System: panel of hematologic and solid cancer lines
experimental.details: 6-day in vitro growth/death assay
Format: cell-based, human
reported.conditions: Homo sapiens, Z-138, Z-138; read-out: gIC50
measurement.label: IC50
Report as: number unit

stdin: Requested read-out: IC50. Entry: O=C(NC[C@H](O)CN1CCc2ccccc2C1)c1ccnc(NC2CCC2)c1
stdout: 13.6 nM

###

Test system: panel of hematologic and solid cancer lines
experimental.details: 6-day in vitro growth/death assay
Assay type: cell-based, human
reported.conditions: Homo sapiens, K562, K562; read-out: gIC50
measurement.label: IC50 (µM)
Return type: number; implicit unit µM.

stdin: Requested read-out: IC50. Entry: O=C(NC[C@H](O)CN1CCc2ccccc2C1)c1ccnc(NC2CCC2)c1 [GSK3203591]
stdout: 0.31

###

Tested on: panel of 240 cancer cell lines
experimental.details: 10-day growth/death assay (Eurofins panel)
Type: cell-based
reported.conditions: Homo sapiens, K562, K562; read-out: gIC50
measurement.label: pIC50
// pIC50 is dimensionless: -log10 of concentration (M)

stdin: Requested read-out: pIC50. Entry: O=C(NC[C@H](O)CN1CCc2ccccc2C1)c1ccnc(NC2CCC2)c1
stdout: 6.84

###

System: panel of 240 cancer cell lines
experimental.details: 10-day growth/death assay (Eurofins panel)
Format: cell-based
reported.conditions: Homo sapiens, ST486, ST486; read-out: gIC50
measurement.label: IC50 (nM)
Return type: number; implicit unit nM.

stdin: Requested read-out: IC50. Entry: O=C(NC[C@H](O)CN1CCc2ccccc2C1)c1ccnc(NC2CCC2)c1
stdout: 101

###

System: panel of hematologic and solid cancer lines
experimental.details: 6-day in vitro growth/death assay
Type: cell-based, human
reported.conditions: A172; read-out: gIC50
measurement.label: pIC50
// pIC50 is dimensionless: -log10 of concentration (M)

stdin: Requested read-out: pIC50. Entry: O=C(NC[C@H](O)CN1CCc2ccccc2C1)c1ccnc(NC2CCC2)c1 [GSK3203591]
stdout: 6.23

###

Tested on: panel of 240 cancer cell lines
experimental.details: 10-day growth/death assay (Eurofins panel)
Type: cell-based
reported.conditions: Homo sapiens, MG-63, MG-63; read-out: gIC50
measurement.label: IC50

stdin: Requested read-out: IC50. Entry: O=C(NC[C@H](O)CN1CCc2ccccc2C1)c1ccnc(NC2CCC2)c1
stdout: 96 nM

###

System: panel of 240 cancer cell lines
experimental.details: 10-day growth/death assay (Eurofins panel)
Type: cell-based
reported.conditions: Homo sapiens, Hs-578T, Hs 578T; read-out: gIC50
measurement.label: pIC50
// pIC50 is dimensionless: -log10 of concentration (M)

stdin: Requested read-out: pIC50. Entry: O=C(NC[C@H](O)CN1CCc2ccccc2C1)c1ccnc(NC2CCC2)c1
stdout: 6.02
